target: thrombin (Bos taurus); construct: mature alpha-thrombin (light plus heavy chain) cut from prothrombin; assay: Fibrinogen coagulation time (thrombin-induced clotting of fibrinogen); assay type: biochemical; settings: bovine fibrinogen, borate saline buffer pH 7.4, thrombin 0.1 ml of 5 units/ml, 25°C; control coagulation time 50-55 seconds; read-out: Concentration required to prolong the coagulation time by a factor of 2
Structures can show the parent of a compound that is named as a salt. Residues, ends and D or L forms follow the SMILES beside them. *: point of attachment. Dansyl = CN(C)c1cccc2c(S(=O)(=O)*)cccc12; Pyrrolidide = C1CCN(*)C1
The recorded IC (2-fold clotting time) of each item maps onto one of these classes: low bin (below 7 µM), mid bin (7 µM to below 60 µM), high bin (60 µM or more)

>>> label_class("CCCCCCNC(=O)[C@H](CCCNC(=N)N)NS(=O)(=O)c1cccc2c(N(C)C)cccc12 [Sample 24, monohydrate]")
"mid bin"
>>> label_class("CCOC(=O)[C@H](CCCNC(=N)N)NS(=O)(=O)c1cccc2c(N(C)C)cccc12 [Sample 2, dihydrochloride]")
"mid bin"
>>> label_class("COC(=O)CCN(C)C(=O)[C@H](CCCNC(=N)N)NS(=O)(=O)c1cccc2c(N(C)C)cccc12")
"low bin"
>>> label_class("CCOC(=O)CCCNC(=O)[C@H](CCCNC(=N)N)NS(=O)(=O)c1cccc2c(N(C)C)cccc12")
"high bin"
>>> label_class("COCCNC(=O)[C@H](CCCNC(=N)N)NS(=O)(=O)c1cccc2c(N(C)C)cccc12 [Sample 28, dihydrate]")
"low bin"
>>> label_class("CCN(CC)C(=O)[C@H](CCCNC(=N)N)NS(=O)(=O)c1cccc2c(N(C)C)cccc12")
"mid bin"
>>> label_class("CCCCN(CC)C(=O)[C@H](CCCNC(=N)N)NS(=O)(=O)c1cccc2c(N(C)C)cccc12")
"mid bin"
>>> label_class("CC(C)CNC(=O)[C@H](CCCNC(=N)N)NS(=O)(=O)c1cccc2c(N(C)C)cccc12 [Sample 27, N^2 -dansyl-N-isobutyl-L-argininamide]")
"high bin"
>>> label_class("CC1CCN(C(=O)[C@H](CCCNC(=N)N)NS(=O)(=O)c2cccc3c(N(C)C)cccc23)CC1 [Sample 58, diacetate]")
"low bin"
>>> label_class("CN(C)c1cccc2c(S(=O)(=O)N[C@@H](CCCNC(=N)N)C(=O)NCC(=O)N3CCCC3)cccc12 [Sample 43] (Dansyl-Arg-Gly-Pyrrolidide)")
"high bin"
>>> label_class("CN(C)c1cccc2c(S(=O)(=O)N[C@@H](CCCNC(=N)N)C(=O)NCCCc3ccccc3)cccc12")
"mid bin"
>>> label_class("CC1CCCCN1C(=O)[C@H](CCCNC(=N)N)NS(=O)(=O)c1cccc2c(N(C)C)cccc12 (stereo partly drawn)")
"low bin"
>>> label_class("COC(=O)CCNC(=O)[C@H](CCCNC(=N)N)NS(=O)(=O)c1cccc2c(N(C)C)cccc12")
"mid bin"

The measured values listed here are drawn from patent US3978045A.
